- target.of.assay: UniProt Q96NT5
- Sequence (Q96NT5 whole entry): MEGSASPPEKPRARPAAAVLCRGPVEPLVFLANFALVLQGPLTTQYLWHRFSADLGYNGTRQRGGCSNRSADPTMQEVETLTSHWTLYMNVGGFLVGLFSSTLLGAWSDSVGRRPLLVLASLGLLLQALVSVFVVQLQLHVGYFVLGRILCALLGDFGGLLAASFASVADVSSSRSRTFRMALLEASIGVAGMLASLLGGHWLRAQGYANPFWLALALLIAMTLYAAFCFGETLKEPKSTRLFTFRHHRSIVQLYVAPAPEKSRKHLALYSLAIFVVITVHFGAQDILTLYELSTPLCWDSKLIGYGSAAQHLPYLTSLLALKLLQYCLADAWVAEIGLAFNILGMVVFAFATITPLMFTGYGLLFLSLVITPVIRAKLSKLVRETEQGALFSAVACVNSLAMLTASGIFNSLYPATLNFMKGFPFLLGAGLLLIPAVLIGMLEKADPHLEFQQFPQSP
- assay.overview: Inhibition of human PCFT expressed in Chinese hamster R2/PCFT4 cells assessed as reduction in [3H]MTX uptake at pH 5.5 measured over 2 mins by Dixon plot analysis
recorded.metric: pKi
Numbers only, as −log10 of the molar value.

See these solved cases before continuing.
Nc1nc2[nH]c(CCCc3ccc(C(=O)N[C@@H](CCC(=O)O)C(=O)O)c(F)c3)cc2c(=O)[nH]1    6.59
Nc1nc2[nH]c(CCCc3csc(C(=O)N[C@@H](CCC(=O)O)C(=O)O)c3F)cc2c(=O)[nH]1    7.15

Task: Specify the recorded pKi for Nc1nc2[nH]c(CCCCc3csc(C(=O)N[C@@H](CCC(=O)O)C(=O)O)c3)cc2c(=O)[nH]1 , system: UniProt Q96NT5.
Result: 6.44

Cited source: ChEMBL document CHEMBL4308835
